# SYSTEM UNDER TEST: 3-phosphoinositide-dependent protein kinase 1 (Homo sapiens, UniProt O15530)
# Sequence (O15530 whole entry): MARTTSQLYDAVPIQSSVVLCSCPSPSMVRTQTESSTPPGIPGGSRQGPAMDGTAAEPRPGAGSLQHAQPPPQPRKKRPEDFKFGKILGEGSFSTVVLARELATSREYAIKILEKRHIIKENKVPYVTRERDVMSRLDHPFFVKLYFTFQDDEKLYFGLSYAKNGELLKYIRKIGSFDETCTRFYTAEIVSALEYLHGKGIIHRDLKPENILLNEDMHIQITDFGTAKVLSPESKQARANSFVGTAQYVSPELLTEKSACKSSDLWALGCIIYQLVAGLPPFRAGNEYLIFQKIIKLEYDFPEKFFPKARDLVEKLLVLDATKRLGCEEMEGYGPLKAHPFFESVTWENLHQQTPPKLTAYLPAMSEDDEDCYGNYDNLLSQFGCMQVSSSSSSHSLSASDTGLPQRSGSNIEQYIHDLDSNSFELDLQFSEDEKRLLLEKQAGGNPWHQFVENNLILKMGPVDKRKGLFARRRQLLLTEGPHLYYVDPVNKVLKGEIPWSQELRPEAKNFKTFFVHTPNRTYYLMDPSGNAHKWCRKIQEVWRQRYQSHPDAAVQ
pIC50: −log10 of the molar value.
pIC50 listing for selected compounds.

[
  {
    "SMI": "COc1cc2ncc3c(N)nc(-c4cncc(Nc5ccccc5OCc5ccccc5)c4)cc3c2cc1OC",
    "pIC50": "< 6.00"
  },
  {
    "SMI": "COc1cc2ncc3c(N)nc(-c4ccccn4)cc3c2cc1OC",
    "pIC50": "< 7.00"
  },
  {
    "SMI": "COc1cc2ncc3c(N)nc(-c4ccc(N)nc4)cc3c2cc1OC",
    "pIC50": "< 6.00"
  }
]
